Ref: a melting point compilation (Tetko et al.; mined from patent text by program, amines drawn as free bases though some values may be those of a salt)

# maps each entry to its melting point

COCCS(=O)(=O)c1ccc(F)c(C#Cc2cc(Cl)ccc2OCC(=O)O)c1 = 125 to 128 °C
O=C(O)C(CC1CCCC1)c1ccc(Cl)c(Cl)c1 (stereo unspecified) = 74.5 to 76.9 °C
CCOC(=O)C(C)=NNc1ccc(Br)cc1 = 153 to 154 °C

Okay, now this compound:
For the compound shown here, COc1ccc(NC(=O)[C@H]2[C@H](c3ccc(S(N)(=O)=O)cc3)C23CCCC3)c(OC)n1 (relative stereo) , give the reported melting point.
112 to 115 °C

---

Item-by-item account of melting point

CN(C)Cc1c[nH]c2c(F)cccc12 = 133 to 137 °C
O=C(NCCCCN1CCCC1)Nc1snc(OCc2c(F)cc(Br)cc2F)c1C(=O)O = 208 °C
CCOc1cc(C(=CC#N)c2ccc3c(c2)nnn3C)ccc1OC = 180 to 182 °C

// query melting point value for entry O=C1NCC(CN2CCN(c3cccc(C(F)(F)F)c3)CC2)O1 (stereo unspecified)
122 to 124 °C

Could you share which melting point value was measured for Cc1nc2c(O[C@@H]3c4ccccc4C[C@H]3O)cccn2c1C=O (relative stereo) ?
187 to 192 °C

// melting point lookup, key: CCc1nc(C)c(C(C)(O)c2ccsc2)o1 (stereo unspecified)
77.5 to 79 °C

Need melting point, item CCCNC(C=Cc1ccccc1Cl)=NC#N
134 to 136 °C

Which measured melting point value corresponds to C1COCCOCCOCCOCCO1 ?
70 to 71 °C

---

Entries and their melting point

// worked examples, melting point included
CC(C)(Cc1ccccc1)C(NC(=O)c1ccc(Cl)cc1)Nc1c(Nc2cncc(C(F)(F)F)c2)c(=O)c1=O (stereo not given) = 194 to 195 °C
CN(C)CCCc1ccc(S(=O)(=O)N2CCC(Nc3nc(N)c(C(=O)c4c(F)cccc4F)s3)CC2)cc1 = 117 to 120 °C
N#CCOc1cccc(CCNS(=O)(=O)c2ccc(Cl)cc2)c1 = 92 °C

Sample CNc1nc(N(C)C)nc2c1nnn2Cc1ccccc1F — what was its melting point?
199 to 200 °C

// melting point lookup, key: CC1Oc2ccc(CN3CC=C(c4ccccc4)CC3)cc2NC1=O (stereo not given)
248 to 255 °C

---

ATTRIBUTE MEASURED: melting point

Solved entries:
CCCCCC1CCc2c(c(F)c(F)c3oc(C4CCC(CCC)CC4)cc23)O1 (stereo not given) = 101 °C
CCC(=O)NCC[C@@H]1CCc2cc(Br)c(O)c(CCO)c21 = 85 to 87 °C

Would you kindly share the measured melting point for N#Cc1cccnc1N1CCN(CC(=O)Nc2cccc([N+](=O)[O-])c2)CC1 ?
143 to 145 °C

Any idea what melting point was measured for Cc1c(C(=O)Nc2cc(Cl)c(N3CCC(N4CCOCC4)CC3)c(Cl)c2)cnn1-c1ccc(C(F)(F)F)cc1 ?
252 to 254 °C

For the compound O=C(O)C(=O)CC(=O)c1cc(CCc2ccccc2)cn1Cc1ccc(F)cc1 , what melting point is on record?
135 to 137 °C

---

melting point values, listed per item

O=C1c2nccnc2C(O)N1c1ccc(Cl)cn1 (configuration not stated) = 236 °C
COc1ccc2c3c1OC1C(O)C(CO)(CO)CC4C(C2)N(C)CCC341 (configuration not stated) = > 265 °C
CCCCn1c2ccc(C#N)cc2c2cc(C#N)ccc21 = 215 to 217 °C
N#CCNC(=O)c1ccc([N+](=O)[O-])cc1 = 147 to 149 °C
CCc1cc(-c2cccc(NC(C)=O)n2)c(OC)cc1OCCN(C)C = 114 °C

Entry under review: CCNC(=O)Nc1nc2cc(-c3cccnc3)cc(-c3nnc(C)o3)n2n1 . Reported melting point?
318 to 321 °C

Quick one: melting point of NC(=O)N(O)CC#Cc1ccc(F)c(C2=N[C@H](c3ccccc3)CO2)c1 ?
173 to 174 °C

GET /values?readout=melting point&item= CCNc1nc2ccccc2n2c(C(C)C)nnc12
209 to 211 °C

---

melting point: recorded values

Field: example entries. Status: answers known.
CCOCc1nc2c(N)nc3cc(-c4cccnc4)ccc3c2n1CCNC(=O)NC(C)C = 194 to 196 °C
CCCCCCCCCCCCCCCCCCC(N)C(N)=O (stereo not given) = 103 to 104 °C
Cc1c(-n2ccnc2)n(CCCCCCCC(=O)O)c2ccccc12 = 101 to 103 °C
CC(C)OC(=O)Nc1cccc(-c2ccnc3c(C(=O)c4ccccc4)cnn23)c1 = 116 to 118 °C
CC(C)N(C(=O)n1oc(=O)[nH]c1=O)c1ccc(F)cc1 = 94 to 95 °C

Could you tell me which melting point is on file for CCOC(=O)C(C)(C)c1ccc(NC(C)=O)cc1 ?
76 to 76.5 °C

# get_value(readout='melting point', item= CC1(C)Cc2cccc(Oc3c(Cl)cc(NC(=S)NC(=O)c4c(F)cccc4F)cc3Cl)c2O1 )
153 to 154 °C

---

Listing of entries alongside the reported melting point.

Field: example entries. Status: answers known.
O=C1CCCN1CCn1c(=O)[nH]c2ncc(-c3ccc(-c4nc[nH]n4)cc3)nc21 = 300 to 301 °C
COC(=O)c1cc(Cl)c(NC(C)=O)cc1OC(C)=O = 134 to 136 °C
FCc1nnc2n1-c1ccc(Cl)cc1C(c1ccccc1)=NC2 = 153 to 154 °C

Item COCCN1CCC(c2ccc(C(=O)NC3(C(=O)NCC#N)CCCCC3)cc2)CC1 has what recorded melting point?
160 to 162 °C

Data request, read-out melting point, for CCn1c(=O)n(OCc2ccccc2)c(=O)c2cc(F)c(N3CCNCC3)cc21
166 to 167 °C

Entry CCC(/C=C(\OC)C(=O)OC)=C\c1cc2ccccc2[nH]1 has what melting point?
93 to 95 °C

Would you mind telling me what melting point value was observed for CCNC(=O)n1cc(F)c(NC(=O)NCc2ccccc2OC)nc1=O ?
248 to 250 °C

Which melting point value is on record for CCCCCCNC(=O)C1=C(C(=O)Nc2cc(OC3CCCC3)c(Cl)cc2F)CCCC1 ?
128 to 130 °C

For the compound COc1cc(Nc2c(C#N)cnc3cc(-c4cccc(CN5CCOCC5)c4)c(OC)cc23)c(Cl)cc1Cl , what melting point is on record?
155 to 158 °C

---

Recorded melting point for the following compounds

COC(=O)CCc1ccc(Oc2ccc(-c3ccc(C#N)cc3)nn2)cc1 = 164 to 167 °C
COc1ccc(Cn2cnc3c(-c4ccco4)nc(C)nc32)cc1 = 127 to 130 °C
CC1CCN(c2ccc(N)cc2C(O)c2ccc(Cl)cc2)CC1 (stereo unspecified) = 89 °C

Entry COc1ccc(C(=O)Nc2ccc(F)c(F)c2)cc1Nc1cccc(C(F)(F)F)c1 : reported melting point = ?
166 to 169 °C

Consider the compound Cc1ccc2c(c1)C(NC(=O)CCCCl)c1ccccc1CS2(=O)=O (stereo unspecified) and give its measured melting point.
203 to 204 °C

Form field: reported melting point of OC(Cn1ccnc1)(c1ccc(-c2ccccc2)cc1)c1ccccc1Cl (stereo unspecified)
222 °C

Given the entry C=C(C)C(=O)Nc1ccc2ccc(Cl)nc2n1 , report its measured melting point.
182 °C

Which value of melting point has been reported for COc1cc2nc(N)nc(-c3ccc(O)cc3)c2cc1OC in the records?
245 to 248 °C

Find the recorded melting point belonging to Cc1nc2sccn2c1-c1ccc(C#N)cc1 and report it.
88 to 91 °C

Value lookup for melting point; key = COC(=O)c1cc(N)c(C)s1
90 to 91 °C

Please look up its melting point: C=CCSc1nc(N)nc2c1ncn2[C@@H]1C[C@H](CO)[C@@H](O)C1
133 to 134 °C

---

ATTRIBUTE MEASURED: melting point

COc1ccc(S(=O)(=O)c2ccccc2C(C)C)cc1 = 100 °C
COC(=O)C(O)(c1cccc(C(F)(F)F)c1)c1cccc(C(F)(F)F)c1 = 69 to 70 °C

Let us move to another entry and its melting point.
Any idea what its melting point is? The compound is Clc1ccc(C2(CCBr)OCC(c3ccc(Cl)cc3Cl)O2)cc1 (stereo unspecified)
82.7 °C

---

ATTRIBUTE MEASURED: melting point

Here is how some compounds turned out for melting point.
COC(=O)C1Cc2c([nH]c3ccccc23)C(c2cccc(Cl)c2)N1 (centres undefined) = 150 to 160 °C
O=C(O)CCCCCCC1(CCCCCCC(=O)O)C(=O)NC(=O)N1CCC(O)C1CCCCC1 (centres undefined) = 116 to 118 °C
COc1ccc(CN2C(=O)c3c(-c4ccccc4Cl)cc4[nH]c5ccc(OC)cc5c4c3C2=O)c(OC)c1 = 224 to 226 °C
Cc1ccc(C(=S)C2CCC3C4CCc5cc(C(=O)O)ccc5C4CCC23C)cc1 (centres undefined) = 255 to 257 °C
O=C(O)Cc1cccc2c(=O)cc(-c3c(F)cccc3F)oc12 = 178 to 180 °C
Cc1cc(C(=O)O)c(NC(=O)Nc2ccc(Oc3ccccc3)cc2)s1 = 213 to 215 °C

Form field: reported melting point of CCOC(=O)C1=C(C)NC(C)=C(C(=O)OC(C)C)C1c1cccc2ccccc12 (centres undefined)
167 °C

Need melting point, item O=C1Cc2cccc(S(=O)c3ccccc3Cl)c2N1 (centres undefined)
243 to 245 °C

Find the recorded melting point belonging to COc1ccc2c(c1)C(=O)c1ccc(-c3nnn[nH]3)cc1S2(=O)=O and report it.
253 °C
